Assay: qHTS assay to identify small molecule antagonists of the estrogen receptor alpha (ER-alpha) signaling pathway using the BG1 cell line in the presence of 0.1 nM 17-beta-estradiol - cell viability counter screen (AID 1259241); further: nearly all actives have a fitted effect of over 40% in size
Details: VM7Luc4E2 (BG1) viability, CellTiter-Fluor protease, 22 h, 0.1 nM estradiol agonist added; series mostly up to 92.4 µM
Inconclusive results are not listed. Calls of active or inactive are those of the source. The call rests on the fitted dose curve; in most records, active means well fitted cell-killing curve with a large enough effect in the repeat runs; inconclusive means weak or mixed curves, or effect the other way; inactive means flat fitted curve, though single readings scatter.
PROPERTY: outcome

According to the records, this molecule O=c1n(Cl)c(=O)n(Cl)c(=O)n1Cl displays outcome of inactive

According to the records, this molecule CN(N=O)c1ccccc1 displays outcome of inactive

According to the records, this molecule CC(C#N)CCC#N (centres undefined) displays outcome of inactive

According to the records, this molecule C1CN2CCN1CC2 displays outcome of inactive

***
According to the records, this molecule Nc1ccc(Br)cc1 displays outcome of inactive

According to the records, this molecule Clc1ccccc1Cl displays outcome of inactive

According to the records, this molecule CCCCN(CC)C(=O)SCCC displays outcome of inactive

According to the records, this molecule OC(O)C(Cl)(Cl)Cl displays outcome of inactive

According to the records, this molecule O=[N+]([O-])c1ccc(Oc2ccc(Cl)cc2Cl)cc1 displays outcome of inactive

According to the records, this molecule c1cc2c3c(cccc3c1)CC2 displays outcome of inactive

According to the records, this molecule COC(=O)c1ccccc1N displays outcome of inactive

According to the records, this molecule CCCCCOC(=O)c1ccccc1C(=O)OCCCCC displays outcome of inactive

According to the records, this molecule O=C(O)c1ccccn1 displays outcome of inactive

According to the records, this molecule CC(C)C1(C)N=C(c2nc3ccccc3cc2C(=O)O)NC1=O (centres undefined) displays outcome of inactive

---

Assay: A CellTox Green Cytotoxicity Assay to monitor cytotoxicity in HEK293 cells - 32 hour (AID 1224881); further: nearly all actives have a fitted effect of over 40% in size
Settings: CellTox Green fluorescence; series mostly up to 76.8 µM
Source text: National Center for Advancing Translational Sciences [NCATS] NIH Chemical Genomics Center [NCGC] U.S. Environmental Protection Agency [EPA] National Institutes of Environmental Health Sciences [NIEHS] National Toxicology Program [NTP] Cell-based models are critical for drug discovery. […] Viable cells produce no appreciable increases in fluorescence. Therefore, the fluorescence signal produced by the binding interaction with dead cell DNA is proportional to cytotoxicity. […]
Results filed as inconclusive are left out. The source made the active and inactive calls. Calls come from the whole dose curve; as a rule, active = well fitted activation curve with a large enough effect in the repeat runs; inconclusive = weak or mixed curves; inactive = flat fitted curve, though single readings scatter.
PROPERTY: outcome

Example results:
According to the records, this compound CN=C=S displays outcome of inactive

According to the records, this compound CC(=O)C=C(C)C displays outcome of inactive

According to the records, this compound O=S(=O)(c1ccc(Cl)cc1)c1cc(Cl)c(Cl)cc1Cl displays outcome of inactive

According to the records, this compound c1ccc2c(c1)oc1ccccc12 displays outcome of inactive

According to the records, this compound O=C1CCCN1 displays outcome of inactive

According to the records, this compound O=[N+]([O-])c1ccccc1 displays outcome of inactive

***
According to the records, this compound CCNc1nc(NC(C)(C)C)nc(SC)n1 displays outcome of inactive

According to the records, this compound CC(Oc1ccc(Cl)cc1Cl)C(=O)O (stereo unspecified) displays outcome of inactive

According to the records, this compound NCCc1ccc(O)cc1 displays outcome of inactive

According to the records, this compound Nc1c(Cl)c(Cl)nc(C(=O)O)c1Cl displays outcome of inactive

According to the records, this compound CC(Br)C(=O)O (stereo unspecified) displays outcome of inactive

Taken from PubChem BioAssay (Tox21).
